The entries below are paired with their reported T/C.
# System: P388 leukemia ip, CD2F1 mice, survival T/C
# protocol.description: NCI In Vivo Anticancer Drug Screen. Data for tumor model P388 Leukemia (intraperitoneal) in CD2F1 (CDF1) mice
# condition.summary: endpoint: median survival time; dose: 100.0 mg/kg/injection; schedule: Q01DX009 (ip); vehicle: Klucel (hydroxypropylcellulose) (HPC); higher = longer survival
Toxic doses and inconclusive results are not listed.

Cc1nn(C(=O)c2ccncc2)c(C)c1N=Nc1ccc(S(N)(=O)=O)cc1; 101 % of control

Now for another entry.
Ask | # get_value(readout='T/C', item= O=C1Nc2ccccc2/C1=N/N=C/c1ccco1 )
Reply | 87 % of control

====

The entries below are paired with their reported T/C.
# Tested on: P388 leukemia ip, CD2F1 mice, survival T/C
# protocol.description: NCI In Vivo Anticancer Drug Screen. Data for tumor model P388 Leukemia (intraperitoneal) in CD2F1 (CDF1) mice
# condition.summary: endpoint: median survival time; dose: 240.0 mg/kg/injection; schedule: Q01DX005 (ip); vehicle: saline with Tween-80; higher = longer survival
Inconclusive results and toxic doses are left out.

O=C(N/C(=C\c1ccccc1Cl)c1nc2ccccc2s1)c1ccccc1; 102 % of control
COc1ccc(CCNC(=O)C2CC3CCCCN3C2C)cc1OC (stereo not drawn); 94 % of control

Ask | # get_value(readout='T/C', item= COc1c(C)c(=O)n2c3ccccc3n(C)c2c1C#N )
Reply | 99 % of control

====

# System: P388 leukemia ip, CD2F1 mice, survival T/C
# protocol.description: NCI In Vivo Anticancer Drug Screen. Data for tumor model P388 Leukemia (intraperitoneal) in CD2F1 (CDF1) mice
# condition.summary: endpoint: median survival time; dose: 60.0 mg/kg/injection; schedule: Q01DX005 (ip); vehicle: Klucel (hydroxypropylcellulose) (HPC); higher = longer survival
# Experimental: The antitumor activity of compounds was measured in mice bearing transplantable tumors. Survival or tumor size were measured and the results are expressed as the measurement made in the treated group (T) divided by the measurement made in the vehicle treated control group (C). The tumor model used in this assay is P388 Leukemia (intraperitoneal) in CD2F1 (CDF1) mice
Inconclusive results and toxic doses are left out.
The entries below are paired with their reported T/C.

Example results:
O=P(O/C(=C\c1ccccc1)c1ccccc1)(c1ccccc1)c1ccccc1; 91 % of control
COc1ccc(/C(O)=C/c2nc3ccc(Cl)cc3[nH]c2=O)cc1; 101 % of control
O=C1c2c(O)ccc(N3CCOCC3)c2C(=O)c2c(N3CCOCC3)ccc(O)c21; 103 % of control
COC(=O)C1(CC(=O)C2CC2)NC(=S)NC(=O)C1C#N (stereo unspecified); 103 % of control
Cc1ccc(-n2c(=O)nc([O-])[n+]3ccccc23)cc1; 99 % of control

Now for another entry.
Ask | # get_value(readout='T/C', item= S=c1nc(-c2nc(=S)[nH]c3c2CCCCC3)c2c([nH]1)CCCCC2 )
Reply | 97 % of control

====

# System: P388 leukemia ip, CD2F1 mice, survival T/C
# protocol.description: NCI In Vivo Anticancer Drug Screen. Data for tumor model P388 Leukemia (intraperitoneal) in CD2F1 (CDF1) mice
# condition.summary: endpoint: median survival time; dose: 200.0 mg/kg/injection; schedule: Q01DX001 (ip); vehicle: Klucel (hydroxypropylcellulose) (HPC); higher = longer survival
Inconclusive results and toxic doses are left out.
The entries below are paired with their reported T/C.

Example results:
O=C(C(Oc1ccc(Cl)cc1)n1cncn1)N1CCOC1C1CCCCC1 (configuration not stated); 100 % of control
O=c1cc[nH]c2ccc3ccccc3c12; 96 % of control
CC(=O)Nc1ccn(C)c1[N+](=O)[O-]; 97 % of control

Now for another entry.
Ask | Form field: T/C recorded for CC(CC(=O)c1ccccc1)=NCCN=C(C)CC(=O)c1ccccc1.[Cl][Sn][Cl] with P388 leukemia ip, CD2F1 mice, survival T/C (enter value)
Reply | 102 % of control

Cited source for all entries: PubChem BioAssay AID330
